target: NanoLuc-p38alpha (Homo sapiens, UniProt Q16539); construct: expressed in transfected cells; host or cells: HEK293; assay: BRET tracer binding to NanoLuc-p38alpha in HEK293 cells (Example 10); details: serially-diluted tracer, 37° C. two hours, FIG. 11
Sequence (Q16539 whole entry): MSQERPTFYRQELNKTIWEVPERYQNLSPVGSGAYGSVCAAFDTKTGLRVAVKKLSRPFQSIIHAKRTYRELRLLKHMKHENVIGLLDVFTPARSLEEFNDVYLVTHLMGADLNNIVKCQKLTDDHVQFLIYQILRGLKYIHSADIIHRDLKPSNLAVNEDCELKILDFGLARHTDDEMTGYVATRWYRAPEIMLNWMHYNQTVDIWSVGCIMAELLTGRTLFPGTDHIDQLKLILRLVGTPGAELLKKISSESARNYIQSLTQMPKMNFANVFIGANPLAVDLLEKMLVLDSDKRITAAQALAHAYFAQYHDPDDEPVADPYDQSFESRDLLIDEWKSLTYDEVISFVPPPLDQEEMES
measured-endpoint: EC50 (µM)
Dear colleague, please return just the value in µM, with no unit written.

Which EC50 is reported with NanoLuc-p38alpha (Homo sapiens, UniProt Q16539) for this entry: CC(C)(C)c1cc(NC(=O)Nc2ccccc2)n(-c2cccc(CNC(=O)CN)c2)n1 ? 0.038

The measurements presented in this section are drawn from patent US10024862B2.
